Each item that follows carries a reported Parts of water added to 2 parts of amine blend yielding a clear solution.
# experiment notes: Water added dropwise to 1:1 hydrophobic amine/cosolvent amine blend until turbidity (visible light scattering)
# Format: physicochemical
# condition details: 1 part Cardolite NC-540 Phenalkamine + 1 part cosolvent amine by weight

[
  {
    "compound": "CC(CN)CCCN (centres unmarked) [Cosolvent E]",
    "observed result": "<3.9 parts"
  },
  {
    "compound": "NC1CCCC1N (centres unmarked) [Cosolvent D, 1,2 Diaminocyclopentane]",
    "observed result": "<3.5 parts"
  },
  {
    "compound": "NCC1CCCC(CN)C1 (centres unmarked) [Cosolvent B, 1,3-Bis (aminomethyl) cyclohexane]",
    "observed result": ">18 parts"
  },
  {
    "compound": "NCCOCCOCCN [Cosolvent G]",
    "observed result": "<.5 parts"
  },
  {
    "compound": "CCCCC(N)CN (centres unmarked) [Cosolvent H, 1,2-Hexanediamine, reference compound]",
    "observed result": "<3 parts"
  },
  {
    "compound": "NCc1cccc(CN)c1 [Cosolvent I, m-Xylylenediamine, reference compound]",
    "observed result": "<.5 parts"
  },
  {
    "compound": "CC1(C)CC(N)CC(C)(CN)C1 (centres unmarked) [Cosolvent A, Isophorone diamine]",
    "observed result": ">30 parts"
  }
]

Now, please, on to the next compound.
Entry under review: NCCCN1CCN(CCCN)CC1 [Cosolvent F, 1,4-Bis (3-aminopropyl) piperazine, reference compound] . Reported Parts of water added to 2 parts of amine blend yielding a clear solution?
<.5 parts
